Measured inhibition at 0.001 µM, listed per entry.
Target: CYP17 (human testicular microsome) (Homo sapiens, UniProt P05093)
Construct: using microsomal fraction from human testis (Celsis Cat #S00110) as the enzyme source; tissue Celsis S00110; host or cells: human testis microsomal fraction
Sequence (P05093 1-508): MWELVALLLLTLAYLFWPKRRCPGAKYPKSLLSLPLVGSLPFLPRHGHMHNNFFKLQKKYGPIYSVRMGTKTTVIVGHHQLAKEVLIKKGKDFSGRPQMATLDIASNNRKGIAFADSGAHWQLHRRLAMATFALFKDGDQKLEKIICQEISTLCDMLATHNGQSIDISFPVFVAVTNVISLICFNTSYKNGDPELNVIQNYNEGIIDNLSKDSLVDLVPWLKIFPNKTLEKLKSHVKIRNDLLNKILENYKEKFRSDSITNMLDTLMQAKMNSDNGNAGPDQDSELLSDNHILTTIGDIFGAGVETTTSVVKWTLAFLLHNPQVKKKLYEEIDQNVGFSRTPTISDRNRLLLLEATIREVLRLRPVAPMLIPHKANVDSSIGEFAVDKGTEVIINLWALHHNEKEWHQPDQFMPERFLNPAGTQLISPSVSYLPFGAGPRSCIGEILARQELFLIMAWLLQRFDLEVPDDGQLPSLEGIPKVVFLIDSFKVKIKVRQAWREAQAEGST
Test: CYP17 enzymatic assay (% inhibition at 1 nM) (Biological Example 12)
Format: biochemical
Conditions: compound at 1 nM, read-out: CYP17 enzymatic assay % inhibition at 1 nM (Biological Example No. 12)
ASSAY_READOUT: inhibition at 0.001 µM

- COMPOUND: "CC1(C)C(=O)CC[C@@]2(C)C1=CC[C@@H]1[C@@H]2CC[C@]2(C)C(c3cccnc3)=CC[C@@H]12 [Compound 293]"
  TARGET_SYSTEM: "CYP17 (human testicular microsome) (Homo sapiens, UniProt P05093)"
  RESULT: "< 10%"
- COMPOUND: "Cc1cccc(C)c1C(=O)O[C@@H]1CC[C@@]2(C)C(=CCC3C4=CC=C(c5cccnc5)[C@@]4(C)CCC32)C1 (stereo partly shown) [Compound 198]"
  TARGET_SYSTEM: "CYP17 (human testicular microsome) (Homo sapiens, UniProt P05093)"
  RESULT: "< 10%"
- COMPOUND: "COC1CC[C@@]2(C)C(=CCC3C2CC[C@]2(C)C(c4cccnc4)=CCC32)C1 (stereo partly shown) [Compound 453]"
  TARGET_SYSTEM: "CYP17 (human testicular microsome) (Homo sapiens, UniProt P05093)"
  RESULT: "< 10%"
- COMPOUND: "CCc1ccncc1C1=CC=C2C3CCC4CC(=O)NCC[C@]4(C)C3CC[C@]12C (stereo partly shown) [Compound 467]"
  TARGET_SYSTEM: "CYP17 (human testicular microsome) (Homo sapiens, UniProt P05093)"
  RESULT: "10 to 50%"
- COMPOUND: "Cc1ccncc1C1=CC=C2C3CCC4CNC(=O)CC[C@]4(C)C3CC[C@]12C (stereo partly shown) [Compound 464]"
  TARGET_SYSTEM: "CYP17 (human testicular microsome) (Homo sapiens, UniProt P05093)"
  RESULT: "10 to 50%"
- COMPOUND: "CCOc1cncc(C2=CCC3C4CC=C5N(C)C(=O)C[C@]5(C)C4CC[C@]23C)c1 (stereo partly shown) [Compound 189]"
  TARGET_SYSTEM: "CYP17 (human testicular microsome) (Homo sapiens, UniProt P05093)"
  RESULT: "10 to 50%"
- COMPOUND: "C=C1C[C@@H]2[C@H](CC[C@]3(C)C(c4cccnc4)=CC[C@@H]23)[C@@]2(C)CCC(=O)C=C12 [Compound 312]"
  TARGET_SYSTEM: "CYP17 (human testicular microsome) (Homo sapiens, UniProt P05093)"
  RESULT: "> 50%"

The reported measurements were obtained from patent US20130252930A1.
